- Target or test system: Poly [ADP-ribose] polymerase 1 (Homo sapiens)
- Assay info: Binding affinity to recombinant human PARP-1 by SPR analysis
pKd: −log10 of the molar value.

Compound smiles	pKd
O=c1cc(-c2ccc(O)cc2)oc2c(CN3CCN(Cc4cccs4)CC3)c(O)cc(O)c12	7.26

====

- Target or test system: Poly [ADP-ribose] polymerase 1 (Homo sapiens, UniProt P09874)
- Sequence (P09874 whole entry): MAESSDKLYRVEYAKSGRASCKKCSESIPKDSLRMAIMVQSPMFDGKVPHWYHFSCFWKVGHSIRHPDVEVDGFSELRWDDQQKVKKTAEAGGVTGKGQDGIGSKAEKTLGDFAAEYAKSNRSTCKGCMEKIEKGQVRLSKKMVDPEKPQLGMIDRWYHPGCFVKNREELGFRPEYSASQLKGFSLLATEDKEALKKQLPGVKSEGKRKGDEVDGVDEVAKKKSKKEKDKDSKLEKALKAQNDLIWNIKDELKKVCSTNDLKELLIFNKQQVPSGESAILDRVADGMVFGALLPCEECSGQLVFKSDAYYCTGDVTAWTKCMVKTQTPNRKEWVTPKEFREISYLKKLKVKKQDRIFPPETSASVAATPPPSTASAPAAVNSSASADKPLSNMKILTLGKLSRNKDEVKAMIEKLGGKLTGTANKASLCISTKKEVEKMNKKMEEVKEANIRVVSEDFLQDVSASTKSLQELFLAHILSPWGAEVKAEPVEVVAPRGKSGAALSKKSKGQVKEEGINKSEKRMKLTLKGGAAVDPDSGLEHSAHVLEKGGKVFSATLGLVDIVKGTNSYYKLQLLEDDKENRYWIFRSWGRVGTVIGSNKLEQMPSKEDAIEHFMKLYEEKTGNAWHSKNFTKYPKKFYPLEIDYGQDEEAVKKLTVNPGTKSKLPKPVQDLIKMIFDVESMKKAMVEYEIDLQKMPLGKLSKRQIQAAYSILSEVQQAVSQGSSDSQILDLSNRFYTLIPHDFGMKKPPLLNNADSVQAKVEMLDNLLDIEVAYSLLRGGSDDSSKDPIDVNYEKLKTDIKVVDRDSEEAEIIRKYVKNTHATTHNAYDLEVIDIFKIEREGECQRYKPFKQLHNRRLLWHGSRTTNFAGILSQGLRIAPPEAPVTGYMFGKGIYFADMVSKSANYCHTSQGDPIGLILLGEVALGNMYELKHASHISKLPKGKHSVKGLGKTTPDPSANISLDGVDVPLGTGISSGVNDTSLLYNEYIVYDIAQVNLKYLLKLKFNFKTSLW
- Assay info: Inhibition of recombinant human full-length PARP-1 using biotinylated substrate

Compound smiles	IC50 / nM
O=c1cc(-c2cccc(-c3c(O)cc(O)c4c(=O)cc(-c5ccco5)oc34)c2)oc2cc(O)cc(O)c12	386
Cc1ccc(-c2cc(=O)c3c(O)cc(O)c(-c4cccc(-c5cc(=O)c6c(O)cc(O)cc6o5)c4)c3o2)cc1	296
O=c1cc(-c2cccc(-c3c(O)cc(O)c4c(=O)cc(-c5ccc(O)c(O)c5)oc34)c2)oc2cc(O)cc(O)c12	642
CC(C)C(=O)N1CCN(Cc2c(O)cc(O)c3c(=O)cc(-c4ccc(O)cc4)oc23)CC1	37.9
COc1ccc(C(=O)N2CCN(Cc3c(O)cc(O)c4c(=O)cc(-c5ccc(O)cc5)oc34)CC2)cc1	43.4
O=c1cc(-c2cccc(-c3c(O)cc(O)c4c(=O)cc(-c5ccc(F)cc5)oc34)c2)oc2cc(O)cc(O)c12	179
O=c1cc(-c2cccc(-c3c(O)cc(O)c4c(=O)cc(-c5cccs5)oc34)c2)oc2cc(O)cc(O)c12	202
O=c1cc(-c2ccc(O)cc2)oc2c(CN3CC=C(c4ccccc4)CC3)c(O)cc(O)c12	139
O=c1cc(-c2ccc(O)cc2)oc2c(CN3CCC(c4ccccc4)CC3)c(O)cc(O)c12	71.9
O=c1cc(-c2ccc(O)cc2)oc2c(CN3CCN(c4ccccc4)CC3)c(O)cc(O)c12	35.6
O=c1cc(-c2ccc(O)cc2)oc2c(CN3CCN(Cc4ccc(F)cc4)CC3)c(O)cc(O)c12	34.5
CC(C)CCN1CCN(Cc2c(O)cc(O)c3c(=O)cc(-c4ccc(O)cc4)oc23)CC1	70.6
CCOC(=O)C1CCN(Cc2c(O)cc(O)c3c(=O)cc(-c4ccc(O)cc4)oc23)CC1	92.8
O=c1cc(-c2ccc(O)cc2)oc2c(CN3CCN(Cc4ccncc4)CC3)c(O)cc(O)c12	19.8
O=c1cc(-c2ccc(O)cc2)oc2c(CN3CCN(c4ccccc4O)CC3)c(O)cc(O)c12	37
O=C(c1cccc(C(F)(F)F)c1)N1CCN(Cc2c(O)cc(O)c3c(=O)cc(-c4ccc(O)cc4)oc23)CC1	41.9
COc1cc(CN2CCN(Cc3c(O)cc(O)c4c(=O)cc(-c5ccc(O)cc5)oc34)CC2)cc(OC)c1	27.2

====

- Assay info: Tmax in Sprague-Dawley rat at 5 mg/kg, iv
- Assay type: ADME, organism-based
- Setup conditions: in vivo
Measured endpoint: Tmax (min)

Compound smiles	Measured endpoint	Unit text	Numeric value
Cl.Cl.O=c1cc(-c2ccc(O)cc2)oc2c(CN3CCN(Cc4cccs4)CC3)c(O)cc(O)c12	Tmax	min	1.8

====

- Target or test system: CYP2C9 (Homo sapiens, UniProt P11712)
- Sequence (P11712 whole entry): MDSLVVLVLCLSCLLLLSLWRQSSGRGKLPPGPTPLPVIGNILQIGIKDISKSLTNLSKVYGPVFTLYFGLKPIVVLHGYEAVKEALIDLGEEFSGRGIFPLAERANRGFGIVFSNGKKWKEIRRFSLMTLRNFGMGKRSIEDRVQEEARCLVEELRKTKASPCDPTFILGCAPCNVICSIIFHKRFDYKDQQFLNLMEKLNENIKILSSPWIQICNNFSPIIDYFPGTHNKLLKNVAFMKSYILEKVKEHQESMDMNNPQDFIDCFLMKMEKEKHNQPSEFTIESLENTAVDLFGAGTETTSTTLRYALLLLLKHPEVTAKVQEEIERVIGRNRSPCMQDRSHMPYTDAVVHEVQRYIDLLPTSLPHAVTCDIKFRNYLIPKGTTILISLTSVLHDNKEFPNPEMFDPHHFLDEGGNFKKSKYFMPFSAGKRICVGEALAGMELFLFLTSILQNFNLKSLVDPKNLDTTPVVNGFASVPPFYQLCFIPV
- Assay info: Inhibition of CYP2C9 (unknown origin) at 10 uM incubated for 10 to 30 mins in presence of NADPH regeneration system by microplate analysis relative to control
- Type: ADME
- Setup conditions: time 10-30 min
Measured endpoint: inhibition at 10 µM (%)

Compound smiles	Numeric value
O=c1cc(-c2ccc(O)cc2)oc2c(CN3CCN(Cc4cccs4)CC3)c(O)cc(O)c12	94.7

====

- Target or test system: Poly [ADP-ribose] polymerase 1 (Homo sapiens)
- Assay info: Inhibition of recombinant human full-length PARP-1 using biotinylated substrate
Measured endpoint: log10 of IC50 (log10 of the value in nM)

Molecule	log10 of IC50
O=c1cc(-c2ccc(O)cc2)oc2c(CN3CCN(Cc4ccc(Cl)cc4)CC3)c(O)cc(O)c12	1.50
O=c1cc(-c2ccc(O)cc2)oc2c(CN3CCN(c4ccc(F)cc4)CC3)c(O)cc(O)c12	1.71
O=c1cc(-c2ccc(O)cc2)oc2c(CN3CCN(c4ccc(Cl)cc4)CC3)c(O)cc(O)c12	1.78
Cc1ccc(N2CCN(Cc3c(O)cc(O)c4c(=O)cc(-c5ccc(O)cc5)oc34)CC2)cc1	1.69
O=C(c1ccco1)N1CCN(Cc2c(O)cc(O)c3c(=O)cc(-c4ccc(O)cc4)oc23)CC1	1.14
COC(=O)C1CCN(Cc2c(O)cc(O)c3c(=O)cc(-c4ccc(O)cc4)oc23)CC1	1.99
O=C(C1CCCCC1)N1CCN(Cc2c(O)cc(O)c3c(=O)cc(-c4ccc(O)cc4)oc23)CC1	1.65
O=C(c1ccncc1)N1CCN(Cc2c(O)cc(O)c3c(=O)cc(-c4ccc(O)cc4)oc23)CC1	1.44
O=C(c1cccc(F)c1F)C1CCN(Cc2c(O)cc(O)c3c(=O)cc(-c4ccc(O)cc4)oc23)CC1	1.90
O=c1cc(-c2ccc(O)cc2)oc2c(CN3CCC(CO)CC3)c(O)cc(O)c12	1.90
O=c1cc(-c2ccc(O)cc2)oc2c(CN3CCN(CC4CC4)CC3)c(O)cc(O)c12	1.74
Cc1ccc(CN2CCN(Cc3c(O)cc(O)c4c(=O)cc(-c5ccc(O)cc5)oc34)CC2)cc1	1.49
O=c1cc(-c2ccc(O)cc2)oc2c(CN3CCN(CC4CCCO4)CC3)c(O)cc(O)c12 (configuration not stated)	1.61
O=c1cc(-c2ccc(O)c(-c3c(O)cc(O)c4c(=O)cc(-c5ccc(O)cc5)oc34)c2)oc2cc(O)cc(O)c12	2.27
O=c1cc(-c2ccc(O)cc2)oc2c(CN3CCN(Cc4cccs4)CC3)c(O)cc(O)c12	1.17
O=c1cc(-c2cccc(-c3c(O)cc(O)c4c(=O)cc(-c5ccc(C(F)(F)F)cc5)oc34)c2)oc2cc(O)cc(O)c12	2.70
Cc1cc(C)cc(COC(=O)N2CCN(Cc3c(O)cc(O)c4c(=O)cc(-c5ccc(O)cc5)oc34)CC2)c1	1.54

====

- Organism: Homo sapiens
- Assay info: Selectivity index, ratio of IC50 for inhibition of recombinant human full-length PARP-2 to IC50 for inhibition of recombinant human full-length PARP-1
# Ratio IC50 per entry
Measured endpoint: Ratio IC50

Molecule	Measured endpoint	Numeric value
O=c1cc(-c2ccc(O)cc2)oc2c(CN3CCN(Cc4ccc(C(F)(F)F)cc4)CC3)c(O)cc(O)c12	Ratio IC50	63.7
O=c1cc(-c2ccc(O)c(-c3c(O)cc(O)c4c(=O)cc(-c5ccc(O)cc5)oc34)c2)oc2cc(O)cc(O)c12 [AMENTOFLAVONE]	Ratio IC50	55.2
O=c1cc(-c2ccc(O)cc2)oc2c(CN3CCC(c4ccccc4)CC3)c(O)cc(O)c12	Ratio IC50	55.6
Cc1ccc(N2CCN(Cc3c(O)cc(O)c4c(=O)cc(-c5ccc(O)cc5)oc34)CC2)cc1	Ratio IC50	57.7
O=c1cc(-c2ccc(O)cc2)oc2c(CN3CCN(CC4CCCCC4)CC3)c(O)cc(O)c12	Ratio IC50	54.9
O=c1cc(-c2ccc(O)cc2)oc2c(CN3CCN(c4ccc(C(F)(F)F)cc4)CC3)c(O)cc(O)c12	Ratio IC50	56.2
O=C(c1ccco1)N1CCN(Cc2c(O)cc(O)c3c(=O)cc(-c4ccc(O)cc4)oc23)CC1	Ratio IC50	68.3
O=c1cc(-c2cccc(-c3c(O)cc(O)c4c(=O)cc(-c5ccc(C(F)(F)F)cc5)oc34)c2)oc2cc(O)cc(O)c12	Ratio IC50	52.6

====

- Target or test system: CYP3A4 (Homo sapiens, UniProt P08684)
- Sequence (P08684 whole entry): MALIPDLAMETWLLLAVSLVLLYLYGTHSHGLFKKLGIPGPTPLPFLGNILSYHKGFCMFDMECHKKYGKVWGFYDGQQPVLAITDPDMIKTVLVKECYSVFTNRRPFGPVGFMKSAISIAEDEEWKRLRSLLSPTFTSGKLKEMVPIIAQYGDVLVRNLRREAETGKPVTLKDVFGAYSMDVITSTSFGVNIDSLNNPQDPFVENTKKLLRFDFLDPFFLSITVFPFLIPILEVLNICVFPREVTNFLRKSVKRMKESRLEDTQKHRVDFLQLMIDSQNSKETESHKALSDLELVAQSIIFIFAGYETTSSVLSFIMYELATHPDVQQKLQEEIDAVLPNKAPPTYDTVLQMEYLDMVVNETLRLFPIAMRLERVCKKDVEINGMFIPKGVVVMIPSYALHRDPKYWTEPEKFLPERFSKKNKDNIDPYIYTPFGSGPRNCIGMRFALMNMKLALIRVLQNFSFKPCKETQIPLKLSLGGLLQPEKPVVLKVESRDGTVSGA
- Assay info: Inhibition of CYP3A4 (unknown origin) at 10 uM incubated for 10 to 30 mins in presence of NADPH regeneration system by microplate analysis relative to control
- Assay type: ADME
- Setup conditions: time 10-30 min
Measured endpoint: inhibition at 10 µM (%)

Compound smiles	Measured endpoint	Unit text	Numeric value
O=c1cc(-c2ccc(O)cc2)oc2c(CN3CCN(Cc4cccs4)CC3)c(O)cc(O)c12	inhibition at 10 µM	%	93.4

====

- Assay info: MRT in Sprague-Dawley rat at 50 mg/kg, po
- Type: ADME, organism-based
- Setup conditions: in vivo

Compound smiles	MRT / h
Cl.Cl.O=c1cc(-c2ccc(O)cc2)oc2c(CN3CCN(Cc4cccs4)CC3)c(O)cc(O)c12	13

====

- Target or test system: Poly [ADP-ribose] polymerase 2 (Homo sapiens, UniProt Q9UGN5)
- Sequence (Q9UGN5 whole entry): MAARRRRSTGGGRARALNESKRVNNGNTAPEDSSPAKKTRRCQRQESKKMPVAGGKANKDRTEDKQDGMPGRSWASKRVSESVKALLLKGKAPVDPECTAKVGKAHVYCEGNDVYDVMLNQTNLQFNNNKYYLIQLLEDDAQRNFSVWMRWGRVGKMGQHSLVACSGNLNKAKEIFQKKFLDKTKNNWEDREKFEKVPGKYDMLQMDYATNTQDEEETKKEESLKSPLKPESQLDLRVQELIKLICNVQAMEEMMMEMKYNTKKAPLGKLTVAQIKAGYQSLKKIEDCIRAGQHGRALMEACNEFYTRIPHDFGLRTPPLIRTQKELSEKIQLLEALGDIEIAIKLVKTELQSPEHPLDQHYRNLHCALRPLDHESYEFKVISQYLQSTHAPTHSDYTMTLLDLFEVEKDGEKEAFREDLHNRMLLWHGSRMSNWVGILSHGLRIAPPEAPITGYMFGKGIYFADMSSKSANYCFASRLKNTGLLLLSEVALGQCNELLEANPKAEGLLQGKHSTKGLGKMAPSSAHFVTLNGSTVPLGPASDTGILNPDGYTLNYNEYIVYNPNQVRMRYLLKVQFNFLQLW
- Assay info: Inhibition of recombinant human full-length PARP-2 using biotinylated substrate
Threshold 10 µM. IC50 below it: rule met. IC50 at it or above: rule not met.

Compound smiles	Label class
O=c1cc(-c2cccc(-c3c(O)cc(O)c4c(=O)cc(-c5ccco5)oc34)c2)oc2cc(O)cc(O)c12	rule not met
O=c1cc(-c2ccc(O)cc2)oc2c(CN3CCN(CC4CC4)CC3)c(O)cc(O)c12	rule met
O=c1cc(-c2cccc(-c3c(O)cc(O)c4c(=O)cc(-c5ccc(O)cc5)oc34)c2)oc2cc(O)cc(O)c12	rule not met
O=c1cc(-c2ccc(O)cc2)oc2c(CN3CCN(c4cncnc4)CC3)c(O)cc(O)c12	rule met
O=c1cc(-c2ccc(O)cc2)oc2c(CN3CCC(c4ccccc4)CC3)c(O)cc(O)c12	rule met
Cc1ccc(-c2cc(=O)c3c(O)cc(O)c(-c4cccc(-c5cc(=O)c6c(O)cc(O)cc6o5)c4)c3o2)cc1	rule not met
O=C(c1cccc(F)c1F)C1CCN(Cc2c(O)cc(O)c3c(=O)cc(-c4ccc(O)cc4)oc23)CC1	rule met
O=c1cc(-c2ccc(O)cc2)oc2c(CN3CCN(Cc4ccsc4)CC3)c(O)cc(O)c12	rule met
